Target: T1, fibroblast growth factor 5 (UniProt P12034 21-268, limits assumed)
T1 construct: also called FGF-5; FGF5
T1 sequence (looked up): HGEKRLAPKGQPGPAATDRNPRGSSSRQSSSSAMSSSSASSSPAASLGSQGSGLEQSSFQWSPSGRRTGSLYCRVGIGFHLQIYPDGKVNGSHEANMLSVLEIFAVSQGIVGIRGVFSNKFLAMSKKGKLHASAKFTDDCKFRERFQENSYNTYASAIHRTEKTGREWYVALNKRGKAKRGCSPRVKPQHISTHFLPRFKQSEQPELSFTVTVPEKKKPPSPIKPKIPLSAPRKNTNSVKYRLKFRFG
Assay: BioVeris ECL competition with a labeled competitor; legend: ++ = IC50 about 10-50 µM
pIC50: −log10 of the molar value.

BINDER | pIC50
FGFps2-Q-BBIt-FGF-5 (designed binder, also called BBIt-FGFps2-Q-A13I-L29P-F50T-V52A) DPDDESSKPCCDQCICTKSNPPQCRCSDMRPNSCHSACKSCACTWIDSTPCTCADITDFCYEPCKPSE | 4.30 to 5.00
MM007-Q-BBIt-FGF-5 (designed binder, also called BBIt-MM007-Q-A13I-L29P-F50T-V52A) DPDDESSKPCCDQCICTKSNPPQCRCSDMRPNSCHSACKSCACRTQPYPLCTCADITDFCYEPCKPSE | 4.30 to 5.00

Where these numbers come from: patent US20100093028A1
